Data origin, for the record: patent US12122778B2

This listing pairs compounds with measured Emax.
- ASSAY TARGET: PKR(R510Q) (Homo sapiens, UniProt P30613, R510Q)
- Sequence (P30613 whole entry R510Q): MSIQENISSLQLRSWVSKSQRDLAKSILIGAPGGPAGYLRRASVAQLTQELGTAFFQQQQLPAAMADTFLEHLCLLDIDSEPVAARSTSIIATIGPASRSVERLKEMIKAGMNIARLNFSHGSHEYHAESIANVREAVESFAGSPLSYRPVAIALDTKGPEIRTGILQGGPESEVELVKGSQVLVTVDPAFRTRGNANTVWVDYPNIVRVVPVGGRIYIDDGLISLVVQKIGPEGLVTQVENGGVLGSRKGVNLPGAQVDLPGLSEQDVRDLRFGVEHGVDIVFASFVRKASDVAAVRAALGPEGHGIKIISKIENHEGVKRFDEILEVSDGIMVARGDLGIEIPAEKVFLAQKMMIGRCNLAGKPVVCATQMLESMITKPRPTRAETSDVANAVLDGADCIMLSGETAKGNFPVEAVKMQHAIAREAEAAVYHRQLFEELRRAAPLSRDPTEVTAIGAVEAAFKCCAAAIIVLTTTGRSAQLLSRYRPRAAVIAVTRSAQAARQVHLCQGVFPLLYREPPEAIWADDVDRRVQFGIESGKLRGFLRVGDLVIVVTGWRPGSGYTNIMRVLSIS
- TEST METHOD NOTES: Luminescence Biochemical Assay (Kinase Glo Plus), PKR R510Q mutant
- EXPERIMENTAL CONDITIONS: without FBP, read-out: AC50 LUM KGP woFBP MAX % FOLD mean

Cc1ccc(CC(=O)N2CC3=C(C2)CN(S(=O)(=O)c2ccccn2)C3)cn1 | 250 to 500%
O=C(Cc1ccc[nH]1)N1CC2=C(C1)CN(S(=O)(=O)c1ccc(OC(F)F)cc1)C2 | 75 to 250%
O=C([C@H](O)c1ccccc1)N1CC2=C(C1)CN(S(=O)(=O)c1ccc(Cl)s1)C2 | 250 to 500%
O=C(NCc1ccc(F)cc1)N1CC2=C(C1)CN(S(=O)(=O)c1ccccn1)C2 | 75 to 250%
O=C([C@H](O)c1ccc(F)cc1)N1CC2=C(C1)CN(S(=O)(=O)c1ccc(C(F)(F)F)nc1)C2 | 75 to 250%
Cc1cccc(CNC(=O)N2CC3=C(C2)CN(S(=O)(=O)c2ccc4ncsc4c2)C3)n1 | 250 to 500%

Q: What value of measured Emax is listed for O=C(N1CC2=C(C1)CN(S(=O)(=O)c1cccc3cccnc13)C2)N1CC(O)(Cc2ccccc2)C1 ?
Result: 75 to 250%

Q: What value of measured Emax is listed for O=C([C@H](O)c1ccccc1)N1CC2=C(C1)CN(S(=O)(=O)c1ccc(C(F)(F)F)cc1)C2 ?
Result: 250 to 500%

Q: What value of measured Emax is listed for COc1ccccc1CNC(=O)N1CC2=C(C1)CN(S(=O)(=O)c1ccc3nsnc3c1)C2 ?
Result: 250 to 500%

====

This listing pairs compounds with measured AC50.
- ASSAY TARGET: PKR(wt) (Homo sapiens)
- Sequence (P30613 whole entry): as the sequence (P30613 whole entry R510Q) above, with Q510R counted along it
- TEST METHOD NOTES: Luminescence Biochemical Assay (Kinase Glo Plus), wild type PKR
- EXPERIMENTAL CONDITIONS: without FBP, read-out: AC50 LUM KGP woFBP AC50 μM gmean

Consider the worked cases shown below.
O=C(NCC1CCOC1)N1CC2=C(C1)CN(S(=O)(=O)c1ccc3occc3c1)C2 (stereo not drawn) | 1 to 40 µM
O=C([C@H](O)c1ccccc1)N1CC2=C(C1)CN(S(=O)(=O)c1ccc(C(F)(F)F)nc1)C2 | 1 to 40 µM
O=C([C@H](O)c1ccc(F)cc1)N1CC2=C(C1)CN(S(=O)(=O)c1ccc(OC(F)F)cc1)C2 | ≤ 0.1 µM

Q: What value of measured AC50 is listed for O=C(NCc1ccco1)N1CC2=C(C1)CN(S(=O)(=O)c1ccc3ncsc3c1)C2 ?
Result: ≤ 0.1 µM

Q: What value of measured AC50 is listed for Cc1ccc(C(C)NC(=O)N2CC3=C(C2)CN(S(=O)(=O)c2ccc(OC(F)F)cc2)C3)s1 (stereo not drawn) ?
Result: 1 to 40 µM

Q: What value of measured AC50 is listed for CC(=O)Nc1ccc(S(=O)(=O)N2CC3=C(CN(C(=O)[C@H](O)c4ccccc4)C3)C2)cc1 ?
Result: 1 to 40 µM

Q: What value of measured AC50 is listed for CC(=O)Nc1cc(S(=O)(=O)N2CC3=C(CN(C(=O)[C@H](O)c4ccccc4)C3)C2)ccc1F ?
Result: 1 to 40 µM

Q: What value of measured AC50 is listed for Cc1cnc(C(=O)N2CC3=C(C2)CN(S(=O)(=O)c2ccc4occc4c2)C3)cn1 ?
Result: 1 to 40 µM

Q: What value of measured AC50 is listed for CN1CCOc2ccc(S(=O)(=O)N3CC4=C(CN(C(=O)[C@H]5CCCO5)C4)C3)cc21 ?
Result: 0.1 to 1 µM

Q: What value of measured AC50 is listed for O=C(Cc1cccnc1)N1CC2=C(C1)CN(S(=O)(=O)c1ccccn1)C2 ?
Result: 1 to 40 µM

Q: What value of measured AC50 is listed for O=C(Cc1cccnc1)N1CC2=C(C1)CN(S(=O)(=O)c1ccc(OC(F)F)cc1)C2 ?
Result: 0.1 to 1 µM
